Cited source: paper PMC5844354

# Assayed system: BRD4(BD2) (Homo sapiens, UniProt O60885)
# Assay text: NMR titration
Measured property: Kd (µM)
Give bare numbers, in µM.

Measured Kd (BRD4(BD2) (Homo sapiens, UniProt O60885)), entry CC(=O)Nc1ccc(O)cc1 : 1600
